experimental_target: T1, recombinant rhesus CD40 (ECD)-hFc (rhesus monkey, UniProt P25942 21-193 (human entry))
T1 construct: Bought protein; also called rhCD40(ECd)-hFc; monkey CD40 (ECD)-hFc
T1 chain: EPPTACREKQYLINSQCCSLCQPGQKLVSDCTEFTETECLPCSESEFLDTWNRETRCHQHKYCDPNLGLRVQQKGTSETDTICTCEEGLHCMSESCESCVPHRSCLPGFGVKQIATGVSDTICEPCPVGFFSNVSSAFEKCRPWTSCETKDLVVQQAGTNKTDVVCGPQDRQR
measurement_protocol: ELISA, rhCD40(ECD)-hFc coated
Experimental: ELISA plates were coated with 500 ng/ml human CD40 (ECD)-his (Sino Biological, CN, Cat #: 10774-H08H) at 4° C. overnight. […] Absorbance was read on a SpectraMax® i3X (Molecular Devies, US) at 450 nm. Species-cross-reactivity of the 20 CD40 mAbs to monkey or mouse CD40 was further assessed by direct ELISA. […]
I'd appreciate it if you marked entries rule met when EC50 is lower than 0.02 µg/mL and rule not met when it is not.

binder	qualitative_label
13A2 (mouse monoclonal antibody) (antibody, V domains shown) VH: EVKLEQSGPGLVKPSQSLSLTCSVTGYSITTNYYWNWIRQFPGNKLEWMGYINYDGSNNYNPSLKNRISITRDTSKNQFFLKLNSVTTEDTATYYCARLDYWGQGTSVTVSS VL: DIVMTQSPLSLPVSLGDQASISCRSSQSLENSNGNTFLNWFLQKPGQSPQLLIYKVSNRFSGVLDRFSGTGSGTDFTLTISRVEAEDLGVYFCLQVTHVPFTFGSGTKLEIK	rule met
29A10 (mouse monoclonal antibody) (antibody, V domains shown) VH: QVKLEQSGGGLVKPGGSLKLSCAASGFTFSHYYMYWVRQTPEKRLEWVATISDAGSYTYYSDSVKGRFTISRDNAKNNLYLQMSSLKSDDTAMYFCARTYYRGDGGYWFFDVWGAGTAVTVSS VL: DIVITQSTSSLAVSVGEKVTMSCESSQSLLYSSNQKNYLAWYQQKPGQSPKLLIYWASTRESGVPDRFTASGSGTDFTLTISSVKAEDLAVYYCQQYYRSPLTFGAGTKLELK	rule not met
7B4 (mouse monoclonal antibody) (antibody, V domains shown) VH: EVQLQESGPGLVKPSQSLSLTCSVTGYSITTNYYWNWIRQFPGNKLEWMGYIKYDGSNNYNPSLKNRISITRDTSKNQFFLKLNSVTTEDTATYYCARLDYWGQGTSVTVSS VL: DIVLTQSPLSLPVSLGDQASISCRSSQSLENSNGNTFLNWFLQKPGQSPQLLIYKVSNRFSGVLDRFSGTGSGTDFTLTISRVEAEDLGVYFCLQVTHVPFTFGSGTKLEIK	rule met
50F6 (mouse monoclonal antibody) (antibody, V domains shown) VH: QVQLEQSGDDLVKPGASVKLSCKASGYTFTTYWINWIKQRPGQGLEWIGRISPGSGSTHYNEMFKGKATLTVDTSSSTAYIQLSSLSSEDSAVYFCTRNDYWGQGTTLTVSS VL: DIVLTQSPLSLPVSLGDQASISCRSSQSIVNSNGNTYLEWYLQKPGQSPKLLIYKVSNRFSGVPDRFSGSGSGTDFTLKISRVEAEDLGVYYCFQGSHVPLTFGAGTKLELK	rule met
